System: MDA-MB-231 cells
Assay: Vacuolation of MDA-MB-231 cells caused by inhibition of compounds on PIKfyve (microscopy); also: key: '+' represents the degree of vacuolation; ++: more '+' indicates more obvious vacuolation; +++: more '+' indicates more obvious vacuolation; ++++: more '+' indicates more obvious vacuolation; '−' represents no vacuolation
Format: cell-based
Conditions: MDA-MB-231 cells, 10 μM, 24 h
Metric Name: degree of vacuolation, 10 μM, 24 h

Please review the entries below; each comes with its answer.
| Molecule | System Under Test | Val |
| --- | --- | --- |
| Cc1ccc(C(=O)Nc2cc(C(F)(F)F)ccc2F)cc1Nc1nc(-c2cccnc2)c2[nH]ccc2n1 [V-c-13] | MDA-MB-231 cells | ++ |
| Cc1ccc(NC(=O)c2cccc(C(F)(F)F)c2)cc1Nc1cc(-c2ccncc2)nc2sccc12 [VIII-a-4] | MDA-MB-231 cells | + |
| Cc1ccc(C(=O)Nc2cccc(C(F)(F)F)c2)cc1Nc1nc(-c2cccnc2)nc2c1ccn2C [II-b-2] | MDA-MB-231 cells | + |
| O=C(Nc1cccc(Nc2cc(-c3ccncc3)nc3sccc23)c1)c1cccc(C(F)(F)F)c1 [VIII-a-2] | MDA-MB-231 cells | ++ |
| Cc1cc(NS(=O)(=O)c2ccccc2)ccc1Nc1nc(-c2cccnc2)c2[nH]ccc2n1 [V-c-35] | MDA-MB-231 cells | + |

Noted for Cc1ccc(NS(=O)(=O)c2cccc(C(F)(F)F)c2)cc1Nc1nc(-c2cccnc2)c2[nH]ccc2n1 [V-c-20] : its degree of vacuolation, 10 μM, 24 h reads −

Noted for Cc1ccc(NC(=O)Nc2cccc(C(F)(F)F)c2)cc1Nc1nc(-c2cccnc2)c2[nH]ccc2n1 [V-c-15] : its degree of vacuolation, 10 μM, 24 h reads ++

Noted for Cc1ccc(C(=O)Nc2cccc(C(F)(F)F)c2)cc1Nc1nc(-c2ccncc2)nc2[nH]ccc12 [II-a-4] : its degree of vacuolation, 10 μM, 24 h reads +

Noted for Cc1ccc(Nc2nc(-c3cccc(NC(=O)c4cccc(C(F)(F)F)c4)c3)nc3ccsc23)cn1 [VII-a-15] : its degree of vacuolation, 10 μM, 24 h reads +

Noted for Cc1ccnc(Nc2nc(-c3cccc(NC(=O)c4ccc(N)nc4)c3)nc3ccsc23)c1 [VII-a-19] : its degree of vacuolation, 10 μM, 24 h reads −

Noted for Cc1ccc(C(=O)Nc2cccc(C(F)(F)F)c2)cc1Nc1cc(-c2ccncc2)nc2sccc12 [VIII-a-8] : its degree of vacuolation, 10 μM, 24 h reads −

Noted for Nc1ccc(NC(=O)c2cccc(Nc3nc(-c4cccnc4)c4[nH]ccc4n3)c2)cc1 [V-c-3] : its degree of vacuolation, 10 μM, 24 h reads ++

---

System: JeKo-1 cells
Assay: Tumor cell growth inhibition by MTS method, JeKo-1
Assay type: cell-based
Settings: Homo sapiens, JeKo-1, 120 h, 5 days of culture
This listing pairs compounds with measured IC50.
Hi! Could you send only the number? It should be in nM, unit omitted.

| Record Smiles | System Under Test | Metric Name | Units | Val |
| --- | --- | --- | --- | --- |
| O=C(Nc1cccc(C(F)(F)F)c1)c1cccc(Nc2cc(-c3ccncc3)nc3sccc23)c1 | JeKo-1 cells | IC50 | nM | 6320 |
| Cc1ccc(NC(=O)c2cccc(C(F)(F)F)c2)cc1Nc1cc(-c2ccncc2)nc2c1ccn2C | JeKo-1 cells | IC50 | nM | 1600 |
| Cc1ccc(C(=O)Nc2cccc(C(F)(F)F)c2)cc1Nc1nc(-c2cccnc2)c2cnn(C)c2n1 | JeKo-1 cells | IC50 | nM | 2000 |

Now, please, on to the next compound.
Noted for COc1ccc(C(=O)Nc2cccc(C(F)(F)F)c2)cc1Nc1nc(-c2cccnc2)c2[nH]ccc2n1 : its IC50 reads 743
